- Tgt: uPAR-expressing HEC-265 human endometrial adenocarcinoma cells (Homo sapiens, UniProt Q03405)
- Sequence (Q03405 23-335): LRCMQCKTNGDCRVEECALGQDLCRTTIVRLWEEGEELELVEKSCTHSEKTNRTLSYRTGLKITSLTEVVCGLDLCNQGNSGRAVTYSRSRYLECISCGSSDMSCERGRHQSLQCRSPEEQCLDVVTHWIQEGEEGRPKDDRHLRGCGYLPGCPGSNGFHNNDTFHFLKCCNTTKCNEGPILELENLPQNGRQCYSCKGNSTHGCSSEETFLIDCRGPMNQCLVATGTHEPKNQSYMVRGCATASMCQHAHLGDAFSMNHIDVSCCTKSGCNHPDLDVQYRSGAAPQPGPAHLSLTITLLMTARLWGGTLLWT
Where a SMILES comes first, the peptide text is derived from it. Bridges are numbered along the chain shown (N, C = ends). [ ]: non-standard residue; d: D form. The star is where a group is joined. 1Nal = N[C@@H](Cc1cccc2ccccc12)C(=O)O; Pentanoyl(4-Me) = CC(C)CCC(=O)*; Cit = NC(=O)NCCC[C@H](N)C(=O)O; Nle = CCCC[C@H](N)C(=O)O
Readout: IC50

[[record]]
compound = "CCCC[C@@H]1NC(=O)[C@H](CCCNC(=N)N)NC(=O)[C@@H](NC(=O)[C@H](CC(C)C)NC(=O)[C@H](CC(=O)O)NC(C)=O)CSSC[C@@H](C(N)=O)NC(=O)[C@H](CC(C)C)NC(=O)[C@H]([C@@H](C)CC)NC(=O)[C@H](C)NC(=O)[C@@H]2CCCN2C(=O)[C@H](Cc2ccccc2)NC(=O)[C@H](Cc2ccc(O)cc2)NC1=O [UPAR-270] (Ac-DLCR[Nle]YFPAILC-NH2; disulfide 3-12)"
result_value = "≤ 10 nM"


input: Specify reported IC50 for the compound shown: CC[C@H](C)[C@@H]1NC(=O)[C@@H](C)NC(=O)[C@@H]2CCCN2C(=O)[C@H](Cc2cccc3ccccc23)NC(=O)[C@H](Cc2ccc(O)cc2)NC(=O)[C@H](CCC(N)=O)NC(=O)[C@H](CCCNC(N)=O)NC(=O)[C@@H](NC(=O)CCC(C)C)CSSC[C@@H](C(N)=O)NC(=O)[C@H](CC(C)C)NC1=O [UPAR-310] ({Pentanoyl(4-Me)}-C[Cit]QY[1Nal]P[dA]ILC-NH2; disulfide 1-10)
output: ≤ 10 nM

====

- Tgt: human uPAR (uPAR-Fc) (Homo sapiens)
- Construct: comprising amino acids Leu23-Arg303 according to UniProt entry Q03405.1; purchased R&D Systems 10378-UK-100
- Sequence (Q03405 23-303): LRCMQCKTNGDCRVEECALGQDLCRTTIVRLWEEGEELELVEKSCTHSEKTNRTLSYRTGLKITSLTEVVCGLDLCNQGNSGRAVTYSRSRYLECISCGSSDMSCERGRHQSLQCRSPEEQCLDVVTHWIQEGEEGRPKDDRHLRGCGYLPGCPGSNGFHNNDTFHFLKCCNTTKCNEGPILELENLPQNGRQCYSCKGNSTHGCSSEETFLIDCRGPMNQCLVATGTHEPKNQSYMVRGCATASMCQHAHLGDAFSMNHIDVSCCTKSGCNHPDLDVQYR
- Protocol Description: Surface plasmon resonance (SPR) assay, single cycle kinetics
- Type: binding
- Condition Description: pKD category for uPAR SPR activity assay; uPAR-Fc on Protein A-Chip, 25°C; read-out: pKD CAT (converted)
Where a SMILES comes first, the peptide text is derived from it. Bridges are numbered along the chain shown (N, C = ends). [ ]: non-standard residue; d: D form. The star is where a group is joined. Acetyl(4-DOTA-piperazinyl) = O=C(O)CN1CCN(CC(=O)O)CCN(CC(=O)N2CCN(CC(=O)*)CC2)CCN(CC(=O)O)CC1; DOTA = O=C(O)CN1CCN(CC(=O)O)CCN(CC(=O)*)CCN(CC(=O)O)CC1; Pro(trans-4-F) = O=C(O)[C@@H]1C[C@@H](F)CN1; Pro(cis-4-F) = O=C(O)[C@@H]1C[C@H](F)CN1; Tyr(3-NH2) = Nc1cc(C[C@H](N)C(=O)O)ccc1O; Cyclopentanecarbonyl = O=C(C1CCCC1)*; NMeY = CN[C@@H](Cc1ccc(O)cc1)C(=O)O; Pentanesulfonyl = CCCCCS(=O)(=O)*; Hyp = O=C(O)[C@@H]1C[C@@H](O)CN1; Pentanoyl(4-Me) = CC(C)CCC(=O)*; Cha = N[C@@H](CC1CCCCC1)C(=O)O; Cit = NC(=O)NCCC[C@H](N)C(=O)O; Butoxycarbonyl = CCCCOC(=O)*; Nle = CCCC[C@H](N)C(=O)O; Orn = NCCC[C@H](N)C(=O)O; Nva = CCC[C@H](N)C(=O)O; Hexanoyl = CCCCCC(=O)*
Readout: Kd

Sample answers from the record:
[[record]]
molecule = "CC[C@H](C)[C@@H]1NC(=O)[C@@H](C)NC(=O)[C@@H]2CCCN2C(=O)[C@H](Cc2ccccc2)NC(=O)[C@H](Cc2ccc(O)cc2)NC(=O)[C@H](CCC(N)=O)NC(=O)[C@H](CCCNC(N)=O)NC(=O)[C@@H](NC(=O)C2CCCC2)CSSC[C@@H](C(N)=O)NC(=O)[C@H](CC(C)C)NC1=O [UPAR-208] (Cyclopentanecarbonyl-C[Cit]QYFP[dA]ILC-NH2; disulfide 1-10)"
result_value = "< 1.58 nM"

[[record]]
molecule = "CCCCOC(=O)N[C@H]1CSSC[C@@H](C(N)=O)NC(=O)[C@H](CCC)NC(=O)[C@H]([C@@H](C)CC)NC(=O)[C@@H]2C[C@@H](O)CN2C(=O)[C@@H]2C[C@H](F)CN2C(=O)[C@H](Cc2ccccc2)NC(=O)[C@H](Cc2ccc(O)c(N)c2)NC(=O)[C@H](CCCNC(=O)CN2CCN(CC(=O)O)CCN(CC(=O)O)CCN(CC(=O)O)CC2)NC(=O)[C@H]([C@@H](C)O)NC1=O [UPAR-234] (Butoxycarbonyl-CT[Orn](DOTA)[Tyr(3-NH2)]F[Pro(cis-4-F)][Hyp]I[Nva]C-NH2; disulfide 1-10)"
result_value = "< 1.58 nM"

[[record]]
molecule = "CCCCCS(=O)(=O)N[C@H]1CSSC[C@@H](C(N)=O)NC(=O)[C@H](CCC)NC(=O)[C@H]([C@@H](C)CC)NC(=O)[C@@H]2C[C@@H](O)CN2C(=O)[C@@H]2CCCN2C(=O)[C@H](Cc2ccccc2)NC(=O)[C@H](Cc2ccc(O)cc2)NC(=O)[C@H](CCC(N)=O)NC(=O)[C@H](CCCNC(=N)N)NC1=O [UPAR-328] (Pentanesulfonyl-CRQYFP[Hyp]I[Nva]C-NH2; disulfide 1-10)"
result_value = "< 1.58 nM"

[[record]]
molecule = "CC(C)CCC(=O)N[C@H]1CSSC[C@@H](C(N)=O)NC(=O)[C@H](CC(C)C)NC(=O)[C@H](CC2CCCCC2)NC(=O)[C@@H](C)NC(=O)[C@@H]2CCCN2C(=O)[C@H](Cc2ccccc2)NC(=O)[C@H](Cc2ccc(O)cc2)NC(=O)[C@H](CCC(N)=O)NC(=O)[C@H](CCCNC(N)=O)NC1=O [UPAR-326] ({Pentanoyl(4-Me)}-C[Cit]QYFP[dA][Cha]LC-NH2; disulfide 1-10)"
result_value = "< 1.58 nM"

[[record]]
molecule = "CC[C@H](C)[C@@H]1NC(=O)[C@@H](C)NC(=O)[C@@H]2C[C@@H](F)CN2C(=O)[C@H](Cc2ccccc2)NC(=O)[C@H](Cc2ccc(O)cc2)NC(=O)[C@H](CCC(N)=O)NC(=O)[C@H](CCCNC(N)=O)NC(=O)[C@@H](NC(=O)CCC(C)C)CSSC[C@@H](C(N)=O)NC(=O)[C@H](CC(C)C)NC1=O [UPAR-178] ({Pentanoyl(4-Me)}-C[Cit]QYF[Pro(trans-4-F)][dA]ILC-NH2; disulfide 1-10)"
result_value = "1.58 to 10 nM"


input: Specify reported Kd for the molecule shown: CCCC[C@@H]1NC(=O)[C@H](CCCNC(=N)N)NC(=O)[C@@H](NC(=O)[C@H](CC(C)C)NC(=O)[C@H](CC(=O)O)NC(C)=O)CSSC[C@@H](C(N)=O)NC(=O)[C@H](CC(C)C)NC(=O)[C@H]([C@@H](C)CC)NC(=O)[C@H](C)NC(=O)[C@@H]2CCCN2C(=O)[C@@H](Cc2ccccc2)NC(=O)[C@H](Cc2ccc(O)cc2)NC1=O [UPAR-230] (Ac-DLCR[Nle]Y[dF]PAILC-NH2; disulfide 3-12)
output: > 100 nM

input: Specify reported Kd for the molecule shown: CCCCOC(=O)N[C@H]1CSSC[C@@H](C(N)=O)NC(=O)[C@H](CCC)NC(=O)[C@H]([C@@H](C)CC)NC(=O)[C@@H]2C[C@@H](O)CN2C(=O)[C@@H]2C[C@H](F)CN2C(=O)[C@H](Cc2ccccc2)NC(=O)[C@H](Cc2ccc(O)cc2)NC(=O)[C@H](CCCCNC(=O)CN2CCN(C(=O)CN3CCN(CC(=O)O)CCN(CC(=O)O)CCN(CC(=O)O)CC3)CC2)NC(=O)[C@H]([C@@H](C)O)NC1=O [UPAR-181] (Butoxycarbonyl-CTK(Acetyl(4-DOTA-piperazinyl))YF[Pro(cis-4-F)][Hyp]I[Nva]C-NH2; disulfide 1-10)
output: < 1.58 nM

input: Specify reported Kd for the molecule shown: CCCC[C@@H]1NC(=O)[C@H](CCCNC(=N)N)NC(=O)[C@@H](NC(=O)[C@H](CC(C)C)NC(=O)[C@H](CC(=O)O)NC(C)=O)CSSC[C@@H](C(N)=O)NC(=O)[C@H](CC(C)C)NC(=O)[C@H]([C@@H](C)CC)NC(=O)[C@H](C)NC(=O)[C@H]2CCCN2C(=O)[C@H](Cc2ccccc2)NC(=O)[C@H](Cc2ccc(O)cc2)NC1=O [UPAR-218] (Ac-DLCR[Nle]YF[dP]AILC-NH2; disulfide 3-12)
output: > 100 nM

input: Specify reported Kd for the molecule shown: CCCCCC(=O)N[C@H](C(=O)N[C@@H](CC(C)C)C(=O)N[C@H]1CSSC[C@@H](C(N)=O)NC(=O)[C@H](CC(C)C)NC(=O)[C@H]([C@@H](C)CC)NC(=O)[C@H](C)NC(=O)[C@@H]2CCCN2C(=O)[C@H](Cc2ccccc2)NC(=O)[C@H](Cc2ccc(O)cc2)NC(=O)[C@H](CC(C)C)NC(=O)[C@H](CC(=O)O)NC1=O)[C@@H](C)O [UPAR-318] (Hexanoyl-TLCDLYFPAILC-NH2; disulfide 3-12)
output: < 1.58 nM

input: Specify reported Kd for the molecule shown: CC[C@H](C)[C@@H]1NC(=O)[C@@H](C)NC(=O)[C@@H]2CCCN2C(=O)[C@H](Cc2ccccc2)NC(=O)[C@H](Cc2ccc(O)cc2)N(C)C(=O)[C@H](CCC(N)=O)NC(=O)[C@H](CCCNC(N)=O)NC(=O)[C@@H](NC(=O)CCC(C)C)CSSC[C@@H](C(N)=O)NC(=O)[C@H](CC(C)C)NC1=O [UPAR-285] ({Pentanoyl(4-Me)}-C[Cit]Q[NMeY]FP[dA]ILC-NH2; disulfide 1-10)
output: > 100 nM

meta.source: patent EP4610269A1
